Entries and their log P
# run_description: logP by HPLC on reversed-phase column (EEC Directive 79/831 Annex V.A8)
# Assay type: physicochemical
# measurement_conditions: HPLC, C18, 40° C., 0.1% aqueous formic acid and acetonitrile

compound	log P
CCN(C)C=Nc1cc(C)c(OCc2ccc(Oc3ccc(SC)cc3)cc2)cc1C [Compound 72]	2.74
Cc1cc(C)cc(COc2cc(C)c(N=CN3CCCCC3)cc2C)c1 [Compound 99]	2.42
CCN(C)C=Nc1cc(C)c(OC(C)c2cccc(Cl)c2)cc1C (centres unmarked) [Compound 30]	2.23
CCN(C)C=Nc1cc(C)c(OC(C)c2ccccc2Cl)cc1C (centres unmarked) [Compound 29]	2.24
CCN(C)C=Nc1cc(C)c(OC(C)c2c(Cl)cccc2Cl)cc1C (centres unmarked) [Compound 4]	2.52
Cc1cc(OCc2ccc(OC(F)F)cc2)c(C)cc1N=CN1CCCCC1 [Compound 125]	2.16
CCN(C)C=Nc1cc(C)c(OCc2ccc(C)c(C)c2)cc1C [Compound 64]	2.23
Cc1cc(OCc2c(F)cccc2Cl)c(C)cc1N=CN1CCCCC1 [Compound 101]	2.16
CCN(C)C=Nc1cc(C)c(OCc2cc(C)c(C)cc2Cl)cc1C [Compound 47]	2.42
CCN(C)C=Nc1cc(C)c(OCc2ccccc2OC(F)(F)F)cc1C [Compound 16]	2.28
Cc1cc(OCc2ccccc2SC(F)(F)F)c(C)cc1N=CN1CCCCC1 [Compound 112]	2.48
CCN(C)C=Nc1cc(C)c(CCc2ccc(F)cc2)cc1C [Compound 42]	2.05
CCN(C)C=Nc1cc(C)c(OCc2ccc(F)cc2)cc1C [Compound 2]	1.99
COc1cc(COc2cc(C)c(N=CN3CCCCC3)cc2C)ccc1F [Compound 121]	2.06
CCN(C)C=Nc1cc(C)c(CCc2cc(C(F)(F)F)cc(C(F)(F)F)c2)cc1C [Compound 35]	2.79
CCN(C)C=Nc1cc(C)c(OCc2ccc(C#N)cc2)cc1C [Compound 10]	1.7
Cc1ccc(C)c(COc2cc(C)c(N=CN3CCCCC3)cc2C)c1 [Compound 91]	2.33
CCN(C)C=Nc1cc(C)c(OCc2cc(F)ccc2F)cc1C [Compound 59]	1.99
Cc1cc(OCc2ccccc2C(F)(F)F)c(C)cc1N=CN1CCCCC1 [Compound 123]	2.29
CCN(C)C=Nc1cc(C)c(OCc2ccc3ccccc3c2)cc1C [Compound 62]	2.29
Cc1cc(OCc2ccc(C#N)cc2)c(C)cc1N=CN1CCCCC1 [Compound 98]	1.94
Cc1cc(OCc2cc(Cl)cc(Cl)c2)c(C)cc1N=CN1CCCCC1 [Compound 90]	2.51
CCN(C)C=Nc1cc(C)c(CCc2ccc(C)cc2)cc1C [Compound 41]	2.23
CCN(C)C=Nc1cc(C)c(OCc2cc(C(F)(F)F)cc(C(F)(F)F)c2)cc1C [Compound 21]	2.62
CCN(C)C=Nc1cc(C)c(OCc2cccc(SC(F)(F)F)c2)cc1C [Compound 69]	2.45
CCN(C)C=Nc1cc(C)c(CCc2ccccc2C(F)(F)F)cc1C [Compound 45]	2.42
